Settings: 328.15 K; 101.33 kPa; Liquid; Pulse-echo method
endpoint_label: speed of sound (m/s)

compound: CCC(=O)[O-].C[NH2+]CCO [2-hydroxy-N-methylethanaminium propionate]
speed of sound / m/s: 1600.9

compound: CC(C)C(=O)[O-].C[NH2+]CCO [2-hydroxy-N-methylethanaminium isobutyrate]
speed of sound / m/s: 1526.4

compound: C[NH2+]CCO.O=C[O-] [2-hydroxy-N-methylethanaminium formate]
speed of sound / m/s: 1757

compound: CCCC(=O)[O-].C[NH2+]CCO [N-methyl-2-hydroxyethylammonium butanoate]
speed of sound / m/s: 1520.6

compound: CCCCC(=O)[O-].C[NH2+]CCO [2-hydroxy-N-methylethanaminium pentanoate]
speed of sound / m/s: 1456.2
